Measured values drawn from the supplement of paper PMC4862054 for this set.

Tested on: Hs578T
Settings: 72 h

# compound, EC50, CellTiter-Glo / nM
rows = [
    ("Nc1ccn([C@@H]2O[C@H](CO)[C@@H](O)[C@@H]2O)c(=O)n1 [Cytarabine]", 462),
    ("CC[C@]1(O)C[C@@H]2CN(CCc3c([nH]c4ccccc34)[C@@](C(=O)OC)(c3cc4c(cc3OC)N(C)[C@H]3[C@@](O)(C(=O)OC)[C@H](OC(C)=O)[C@]5(CC)C=CCN6CC[C@]43[C@@H]65)C2)C1 [Vinblastine]", 9.25),
    ("COc1cccc2c1C(=O)c1c(O)c3c(c(O)c1C2=O)C[C@@](O)(C(=O)CO)C[C@@H]3O[C@H]1C[C@H](N)[C@H](O)[C@H](C)O1 [Doxorubicin]", 463),
    ("S=c1[nH]cnc2nc[nH]c12 [Mercaptopurine]", 985),
    ("COc1cccc2cc(-c3nc([C@H]4CC[C@H](C(=O)O)CC4)n4ncnc(N)c34)[nH]c12 [OSI-027]", 6720),
]

---

System: MDA-MB-468
Conditions: 72 h

# smiles-code, unit-abbrev, EC50, CellTiter-Blue viability
data = [
    ("S=c1[nH]cnc2nc[nH]c12", "nM", 387),
    ("CO[C@H]1C[C@@H]2CC[C@@H](C)[C@@](O)(O2)C(=O)C(=O)N2CCCC[C@H]2C(=O)O[C@H]([C@H](C)C[C@@H]2CC[C@@H](OC(=O)C(C)(CO)CO)[C@H](OC)C2)CC(=O)[C@H](C)/C=C(\\C)[C@@H](O)[C@@H](OC)C(=O)[C@H](C)C[C@H](C)/C=C/C=C/C=C/1C", "nM", 0.39),
    ("CN(C)C/C=C/C(=O)Nc1cc2c(Nc3ccc(F)c(Cl)c3)ncnc2cc1O[C@H]1CCOC1", "nM", 1160),
    ("CN1CCC(COc2cnc(-c3cccc(Cn4nc(-c5cccc(C#N)c5)ccc4=O)c3)nc2)CC1", "nM", 3040),
    ("COc1cc(Nc2ncc3c(n2)-c2ccc(Cl)cc2C(c2c(F)cccc2OC)=NC3)ccc1C(=O)O", "nM", 76.2),
    ("CN1CC[C@H](c2c(O)cc(O)c3c(=O)cc(-c4ccccc4Cl)oc23)[C@H](O)C1", "nM", 278),
]

---

System: HCC1143
Assay: normalised response (% of control), CellTox Green; higher = less cell death (100 = DMSO, 0 = benzethonium chloride kill control)
Conditions: incubation time: 72 h
test-readout: normalised response

# molecule, value-observed
measured = [
    ("CC[C@]1(O)C[C@@H]2CN(CCc3c([nH]c4ccccc34)[C@@](C(=O)OC)(c3cc4c(cc3OC)N(C)[C@H]3[C@@](O)(C(=O)OC)[C@H](OC(C)=O)[C@]5(CC)C=CCN6CC[C@]43[C@@H]65)C2)C1 [Vinblastine] (100 nM)", "56.7%"),
    ("CO[C@H]1C[C@@H]2CC[C@@H](C)[C@@](O)(O2)C(=O)C(=O)N2CCCC[C@H]2C(=O)O[C@H]([C@H](C)C[C@@H]2CC[C@@H](OC(=O)C(C)(CO)CO)[C@H](OC)C2)CC(=O)[C@H](C)/C=C(\\C)[C@@H](O)[C@@H](OC)C(=O)[C@H](C)C[C@H](C)/C=C/C=C/C=C/1C [Temsirolimus] (1 nM)", "117%"),
    ("Cc1ccc(F)c(NC(=O)Nc2ccc(-c3cccc4[nH]nc(N)c34)cc2)c1 [Linifanib] (100 nM)", "122%"),
    ("Nc1nc(Cl)nc2c1ncn2[C@H]1C[C@H](O)[C@@H](CO)O1 [Cladribine] (10 nM)", "53.3%"),
    ("O=C(c1ccc(C(=O)N2CCC(N3CCCC3)CC2)c(Nc2ccccc2)c1)N1CCC(N2CCCC2)CC1 [UNC1215] (300 nM)", "93.9%"),
]

---

Test system: HDQ-P1
Assay: drug sensitivity score (DSS), CellTiter-Blue viability (DSS (AUC-based score)); higher = stronger viability inhibition; extreme values may be limits of the assay
Conditions: incubation time: 72 h
Listed here: items and their measured drug sensitivity score.
test-readout: drug sensitivity score

# compound, value-observed
records = [
    ("OC[C@H]1O[C@@H](n2cnc3c2N=CNC[C@H]3O)C[C@@H]1O", 0),
    ("Nc1ccn([C@@H]2O[C@H](CO)[C@@H](O)[C@@H]2O)c(=O)n1", 0),
    ("CC[C@]1(O)C[C@@H]2CN(CCc3c([nH]c4ccccc34)[C@@](C(=O)OC)(c3cc4c(cc3OC)N(C)[C@H]3[C@@](O)(C(=O)OC)[C@H](OC(C)=O)[C@]5(CC)C=CCN6CC[C@]43[C@@H]65)C2)C1", 18.2),
    ("S=c1[nH]cnc2nc[nH]c12", 0),
    ("CO[C@H]1C[C@@H]2CC[C@@H](C)[C@@](O)(O2)C(=O)C(=O)N2CCCC[C@H]2C(=O)O[C@H]([C@H](C)C[C@@H]2CC[C@@H](OC(=O)C(C)(CO)CO)[C@H](OC)C2)CC(=O)[C@H](C)/C=C(\\C)[C@@H](O)[C@@H](OC)C(=O)[C@H](C)C[C@H](C)/C=C/C=C/C=C/1C", 7.62),
    ("Cc1c2oc3c(C)ccc(C(=O)N[C@@H]4C(=O)N[C@H](C(C)C)C(=O)N5CCC[C@H]5C(=O)N(C)CC(=O)N(C)[C@@H](C(C)C)C(=O)O[C@@H]4C)c3nc-2c(C(=O)N[C@@H]2C(=O)N[C@H](C(C)C)C(=O)N3CCC[C@H]3C(=O)N(C)CC(=O)N(C)[C@@H](C(C)C)C(=O)O[C@@H]2C)c(N)c1=O", 28.5),
    ("N#CC[C@H](C1CCCC1)n1cc(-c2ncnc3[nH]ccc23)cn1", 0),
    ("Clc1ccc(C(c2ccccc2Cl)C(Cl)Cl)cc1 (stereo not drawn)", 0),
]

---

System: MCF-10A
Assay: normalised response (% of control), CellTiter-Glo; higher = more viable cells (100 = DMSO, 0 = benzethonium chloride kill control)
Settings: incubation time: 72 h
Listed here: items and their measured normalised response.
test-readout: normalised response (%)

# compound, test-readout, value-observed
rows = [
    ("C=CC[C@@H]1/C=C(\\C)C[C@H](C)C[C@H](OC)[C@H]2O[C@@](O)(C(=O)C(=O)N3CCCC[C@H]3C(=O)O[C@H](/C(C)=C/[C@@H]3CC[C@@H](O)[C@H](OC)C3)[C@H](C)[C@@H](O)CC1=O)[C@H](C)C[C@@H]2OC [Tacrolimus] (10 nM)", "normalised response", 103),
    ("CC(=O)O[C@]1(C(C)=O)CC[C@H]2[C@@H]3C=C(C)C4=CC(=O)CC[C@]4(C)[C@H]3CC[C@@]21C [Megestrol acetate] (1000 nM)", "normalised response", 121),
    ("CC[C@]1(O)C[C@@H]2CN(CCc3c([nH]c4ccccc34)[C@@](C(=O)OC)(c3cc4c(cc3OC)N(C)[C@H]3[C@@](O)(C(=O)OC)[C@H](OC(C)=O)[C@]5(CC)C=CCN6CC[C@]43[C@@H]65)C2)C1 [Vinblastine] (1 nM)", "normalised response", 103),
    ("CN(C)C/C=C/C(=O)Nc1cc2c(Nc3ccc(F)c(Cl)c3)ncnc2cc1O[C@H]1CCOC1 [Afatinib] (0.1 nM)", "normalised response", 91.2),
]

---

System: HDQ-P1
Test: normalised viability (% of control), CellTiter-Blue; higher = more viable cells (about 100 = DMSO control)
Conditions: incubation time: 72 h
Define the label as label 1 when normalised viability is strictly less than 90% and as label 0 in all remaining cases.

# compound, classification
data = [
    ("CN1CCC(COc2cnc(-c3cccc(Cn4nc(-c5cccc(C#N)c5)ccc4=O)c3)nc2)CC1 (3000 nM)", "label 1"),
    ("Nc1nc(Cl)nc2c1ncn2[C@H]1C[C@H](O)[C@@H](CO)O1 [Cladribine] (300 nM)", "label 0"),
    ("Nc1ccn([C@@H]2O[C@H](CO)[C@@H](O)[C@@H]2O)c(=O)n1 [Cytarabine] (3000 nM)", "label 1"),
    ("COc1cccc2c1C(=O)c1c(O)c3c(c(O)c1C2=O)C[C@@](O)(C(=O)CO)C[C@@H]3O[C@H]1C[C@H](N)[C@H](O)[C@H](C)O1 [Doxorubicin] (300 nM)", "label 1"),
]

---

Listed here: items and their measured drug sensitivity score.
System: DU-4475
Test: drug sensitivity score (DSS), CellTox Green (DSS (AUC-based score)); higher = stronger drug effect (viability inhibition or cytotoxicity); extreme values may be limits of the assay
Settings: incubation time: 72 h

# smiles-code, drug sensitivity score
measured = [
    ("C[C@]1(c2nc3c(C(N)=O)cccc3[nH]2)CCCN1", 0),
    ("C=CCNC1=C2C[C@@H](C)C[C@H](OC)[C@H](O)[C@@H](C)/C=C(\\C)[C@H](OC(N)=O)[C@@H](OC)/C=C\\C=C(/C)C(=O)NC(=CC1=O)C2=O", 7.07),
    ("COc1cccc2cc(-c3nc([C@H]4CC[C@H](C(=O)O)CC4)n4ncnc(N)c34)[nH]c12", 0),
    ("O=C(c1ccc(C(=O)N2CCC(N3CCCC3)CC2)c(Nc2ccccc2)c1)N1CCC(N2CCCC2)CC1", 0),
    ("S=c1[nH]cnc2nc[nH]c12", 0),
]
